Origin of the recorded values: PubChem BioAssay

Here, each record is paired with measured inhibition data.
# test.description: inhibitors of TNFa-induced NFkB p65 translocation, primary screen, imaging, HUVEC, MLSMR starter and 10KST1 sets (AID 438);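 further: compound added about 3h40 before a 20 min TNFalpha stimulation; signal is the nuclear over cytoplasmic p65 intensity ratio per well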
# reported.conditions: HUVEC TNFa-induced p65 nuclear translocation; at 2 µM, active compounds read high, 0% TNFa-plus-vehicle, 100% no-TNFa wells
The source made the active and inactive calls.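 How the source made its calls: active means inhibition above 20% together with a positive visual image hit; inconclusive means visual image hit but inhibition not above 20%; inactive means no visual image hit.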
observation.type: inhibition

> print(dat)
                                    molecule     value.reported
 1       CC(C)C(=O)Nc1ccc(-c2nc3cccnc3o2)cc1    6.7% (inactive)
 2  COc1ccccc1N1CCN(c2nc3ccccc3nc2C(C#N)C(=O)OC(C)C)CC1 (stereo not drawn)      1% (inactive)
 3  N#CC1=C(N)OC2=C(CCC/C2=C/c2ccoc2)C1c1ccoc1 (stereo not drawn)   -5.2% (inactive)
 4  O=C(CN1CCN(Cc2ccc3c(c2)OCO3)CC1)N1CCc2[nH]c3ccc(F)cc3c2C1   13.9% (inactive)
 5           O=C(OCC(=O)N1CCCC1)c1cncc(Br)c1   16.5% (inactive)
 6  CCC(CCC(=O)Nc1cccc(C(=O)O)c1)C(=O)O (stereo not drawn)    8.8% (inactive)
 7  COc1ccc(C2C(C(C)=O)=C(C)N=c3s/c(=C/c4ccc5c(c4)OCO5)c(=O)n32)cc1 (stereo not drawn)   -7.3% (inactive)
 8  Cn1cnnc1Sc1nc2c(c(=O)n(C)c(=O)n2C)n1Cc1ccccc1Cl    7.7% (inactive)
 9              COC(=O)COc1nc(C)c(Br)c(OC)n1    2.4% (inactive)
10  CC(C)OC(=O)c1cc(NC(=O)C2C3CCC(O3)C2C(=O)O)cc(C(=O)OC(C)C)c1 (stereo not drawn)    4.2% (inactive)
11                COCCn1nnnc1SCC(=O)N1CCCCC1    1.6% (inactive)
12              c1n[nH]c(SCCCCSc2ncn[nH]2)n1  -30.6% (inactive)
13  O=C1c2oc3ccccc3c(=O)c2C(c2cccnc2)N1Cc1ccco1 (stereo not drawn)   -2.7% (inactive)
14  N#Cc1c(N2CCCC2)nc(N)c2c(N)nc(N3CCCC3)cc12   -9.2% (inactive)
15                      CCCCn1nnnc1NCc1cccs1    2.9% (inactive)
16      O=C(COC(=O)c1cnccn1)Nc1ccc2c(c1)OCO2    7.8% (inactive)
17  CC(=O)c1cccc(NC(=O)CCNS(=O)(=O)c2cccc3nsnc23)c1   -3.5% (inactive)
18  Cc1noc(C)c1S(=O)(=O)N1CCC(C(=O)N2CCN(Cc3ccc4c(c3)OCO4)CC2)CC1   -6.9% (inactive)
19  CCOc1ccc(CCN2C(=O)C3C4C=CC(C4)C3C2=O)cc1OCC (stereo not drawn)    2.9% (inactive)
20  COc1cccc(Nc2nnc(SCC(=O)N3CC(C)OC(C)C3)s2)c1 (stereo not drawn)    4.8% (inactive)
21  CCCCCCn1c(CN2CCCC(C)C2)nc2c1c(=O)n(C)c(=O)n2C (stereo not drawn)   -3.8% (inactive)
22  CC1Cc2ccccc2N1CC(=O)NC(=O)NCc1ccco1 (stereo not drawn)   -2.6% (inactive)
23  Cc1ccc(S(=O)(=O)N2CCCC2C(=O)n2nc(C)cc2C)cc1 (stereo not drawn)  -12.3% (inactive)
